- protocol-details: Ability to inhibit platelet activating factor (PAF) binding to platelets by 50% was determined by using [3H]PAF as radioligand
Reported values of pIC50 for individual entries
Bear in mind: pIC50 is minus log10 of a mol/L concentration; give just that figure.

Reference set (5 entries):
{"structure-string": "O=C(NCCCCc1cccnc1)c1ccc2nc3ccccc3c(=O)n2c1", "observed-value": 5.74}
{"structure-string": "Cc1ccc2nc3ccc(C(=O)NCCCCc4cccnc4)cn3c(=O)c2c1", "observed-value": 6.30}
{"structure-string": "O=C(NCCCCc1cccnc1)c1ccc2nc3ccc(Br)cc3c(=O)n2c1", "observed-value": 6.15}
{"structure-string": "Cc1cc2nc3ccc(C(=O)NCCCCc4cccnc4)cn3c(=O)c2cc1C", "observed-value": 6.60}
{"structure-string": "CC(C)c1ccc2nc3ccc(C(=O)NCCCCCCc4cncnc4)cn3c(=O)c2c1", "observed-value": 6.70}

What does the record list as pIC50 for CC(C)c1ccc2nc3ccc(C(=O)NCCCCc4cncnc4)cn3c(=O)c2c1 ?
6.35

Cool, now COc1ccc2nc3ccc(C(=O)NCCCCc4cccnc4)cn3c(=O)c2c1
6.00

Another compound to look at: CC(C)c1ccc2nc3ccc(C(=O)NCCCCc4ccncc4)cn3c(=O)c2c1
5.89

----------
- protocol-details: Ability to inhibit platelet activating factor (PAF) binding to platelets by 50% was determined by using [3H]PAF as radioligand
observed-property: IC50 (µM)
Write the value in µM as a bare number.

Record request: IC50 value, item CC(C)c1ccc2nc3ccc(C(=O)NCCc4cccnc4)cn3c(=O)c2c1
2.5

O=C(NCCCCc1cccnc1)c1ccc2nc3cc(Cl)ccc3c(=O)n2c1 ?
1

Then what about the compound O=C(NCCCCc1cccnc1)c1ccc2nc3ccc(O)cc3c(=O)n2c1 ?
1.2

What would you report for CC(C)c1ccc2nc3ccc(C(=O)NC(C)(C)CCCc4cccnc4)cn3c(=O)c2c1 ?
1.2

Another compound to look at: CC(C)Oc1ccc2nc3ccc(C(=O)NCCCCc4cccnc4)cn3c(=O)c2c1
0.6

Same for CC(C)c1ccc2nc3ccc(C(=O)NCCCCn4ccnc4)cn3c(=O)c2c1
3.5

----------
- tested-target: Platelet-activating factor receptor (Canis familiaris)
- protocol-details: ChEBML_158835
Item-by-item account of IC50
Note: unit nM is implicit; provide only the numeric part.

Known IC50 results, listed for orientation:
{"compound": "CC(CCCc1cccnc1)NC(=O)c1ccc2nc3ccc(C(C)C)cc3c(=O)n2c1 (stereo not drawn)", "observed-value": 400}
{"compound": "CC(C)c1ccc2nc3ccc(C(=O)N[C@H](C)CCCc4cccnc4)cn3c(=O)c2c1", "observed-value": 250}

// switching to the query compound
Record lookup: for Platelet-activating factor receptor (Canis familiaris), what IC50 belongs to CC(C)c1ccc2nc3ccc(C(=O)N[C@@H](C)CCCc4cccnc4)cn3c(=O)c2c1 ?
600

----------
- protocol-details: Ability to inhibit platelet activating factor (PAF) binding to platelets by 50% was determined by using [3H]PAF as radioligand
pIC50: −log10 of the molar value.
observed-property: pIC50

Example compounds with recorded pIC50:
{"structure-string": "CC(C)c1ccc2nc3ccc(C(=O)OCCCCc4cccnc4)cn3c(=O)c2c1", "observed-property": "pIC50", "observed-value": "< 6.00"}
{"structure-string": "CC(C)c1ccc2nc3ccc(CNCCCCc4cccnc4)cn3c(=O)c2c1", "observed-property": "pIC50", "observed-value": "< 6.00"}
{"structure-string": "CC(C)c1ccc2nc3ccc(C(=O)NCCCCCc4cccnc4)cn3c(=O)c2c1", "observed-property": "pIC50", "observed-value": "< 6.00"}
{"structure-string": "Cc1cc2nc3ccc(C(=O)NCCCCc4ccc[n+](C)c4)cn3c(=O)c2cc1C", "observed-property": "pIC50", "observed-value": "< 6.00"}

What measured pIC50 goes with CC(C)c1ccc2nc3ccc(S(=O)(=O)NCCCCc4cccnc4)cn3c(=O)c2c1 ?
< 6.00

Let us now turn to CC(C)c1ccc2nc3ccc(C(=O)NCCCCCCCc4cccnc4)cn3c(=O)c2c1
< 6.00

Request: CC(C)c1ccc2nc3ccc(C(=O)NCCCCc4ccccn4)cn3c(=O)c2c1
5.30

What about this compound? Cc1cc2nc3ccc(C(=O)NCCCCCC[n+]4ccccc4)cn3c(=O)c2cc1C
< 6.00

Also check CC(C)c1ccc2nc3ccc(C(=O)NCCCc4cccnc4)cn3c(=O)c2c1
< 6.00

Similarly, CC(C)c1ccc2nc3ccc(C(=O)NCCCCCCc4cccnc4)cn3c(=O)c2c1 ?
6.40

And for CC(C)c1ccc2nc3ccc(C(=O)NCCCCc4cccnc4)cn3c(=O)c2c1 ?
6.46

Request: COc1ccc2c(=O)n3cc(C(=O)NCCCCc4cccnc4)ccc3nc2c1
6.43

Do the same for Cc1cc2nc3ccc(C(=O)NCCCCc4cncnc4)cn3c(=O)c2cc1C please
7.00
